- system-tested: T1, THAP1 THAP domain N12K (human, UniProt Q9NVV9 1-81, N12K)
- T1 sequence: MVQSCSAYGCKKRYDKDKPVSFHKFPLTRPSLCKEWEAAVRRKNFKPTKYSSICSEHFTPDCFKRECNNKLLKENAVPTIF
- run-description: fluorescence quenching
measurement-label: Kd (nM)
Number in nM, nothing else.

Kd for 14-bp non-specific DNA (ns) (dsDNA) DNA 1: GATTTGCATTTTAA DNA 2: TTAAAATGCAAATC is 400
